experiment description: small-molecule microarray binders of probe aXIP, primary screen, biochemical, NeuroSMM set, 635/667 nm fluorescence (AID 1119);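 further: probe is the protein aXip251-270 applied at 1 µg/mL to compound-printed slides; binding of probe to printed compounds measured as 667 nm fluorescence plus signal to noise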
measurement conditions: higher = more signal, called active from +8 up or from −8 down
Outcome: label 1 for composite Z-score of at least 0.2; label 0 for anything lower.

- CC(C)(C)OC(=O)CC[C@]1(C(=O)O)N=C(c2ccc(OCCCO)cc2)O[C@H]1c1ccccc1: label 0
- C=C(/C(=C/C[C@@H](OC(=O)c1ccncc1)c1ccc(OCCO)cc1)c1cc(C(=O)OC)ccc1OC)C(C)C: label 1
- COc1cc(CO)cc(I)c1O[C@H]1C=C(C(=O)NCCO)C[C@@H](NCc2ccccc2F)[C@@H]1O: label 1
- CCOC(=O)[C@H]1C/C=C/C[C@H](C(=O)OCC)C(=O)O[C@H]2[C@@H](OC)O[C@H](CO)[C@@H](OC(=O)CCc3ccccc3)[C@@H]2OC1=O: label 1
- COc1ccc(NC(=O)O[C@H]2[C@H](OC(=O)Nc3ccc4c(c3)OCO4)[C@@H](OC(=O)Nc3ccc4c(c3)OCO4)[C@@H](OC)O[C@@H]2CO)cc1: label 1
- CN(C)CCCNC(=O)[C@@H]1c2ccccc2C(=O)N(Cc2ccc(OC(F)(F)F)cc2)[C@H]1c1ccc(CO)cc1: label 1
- C[n+]1ccc(CCCO)cc1: label 0
- C=C(CCCC)/C(=C/C[C@@H](OC(=O)c1ccncc1)c1cccc(OCCO)c1)c1cnc2ccccc2c1: label 1
